Target: αvβ6 (Homo sapiens, UniProt P06756+P18564)
Construct: endogenous in cells
Sequence (P06756 31-889 limits assumed): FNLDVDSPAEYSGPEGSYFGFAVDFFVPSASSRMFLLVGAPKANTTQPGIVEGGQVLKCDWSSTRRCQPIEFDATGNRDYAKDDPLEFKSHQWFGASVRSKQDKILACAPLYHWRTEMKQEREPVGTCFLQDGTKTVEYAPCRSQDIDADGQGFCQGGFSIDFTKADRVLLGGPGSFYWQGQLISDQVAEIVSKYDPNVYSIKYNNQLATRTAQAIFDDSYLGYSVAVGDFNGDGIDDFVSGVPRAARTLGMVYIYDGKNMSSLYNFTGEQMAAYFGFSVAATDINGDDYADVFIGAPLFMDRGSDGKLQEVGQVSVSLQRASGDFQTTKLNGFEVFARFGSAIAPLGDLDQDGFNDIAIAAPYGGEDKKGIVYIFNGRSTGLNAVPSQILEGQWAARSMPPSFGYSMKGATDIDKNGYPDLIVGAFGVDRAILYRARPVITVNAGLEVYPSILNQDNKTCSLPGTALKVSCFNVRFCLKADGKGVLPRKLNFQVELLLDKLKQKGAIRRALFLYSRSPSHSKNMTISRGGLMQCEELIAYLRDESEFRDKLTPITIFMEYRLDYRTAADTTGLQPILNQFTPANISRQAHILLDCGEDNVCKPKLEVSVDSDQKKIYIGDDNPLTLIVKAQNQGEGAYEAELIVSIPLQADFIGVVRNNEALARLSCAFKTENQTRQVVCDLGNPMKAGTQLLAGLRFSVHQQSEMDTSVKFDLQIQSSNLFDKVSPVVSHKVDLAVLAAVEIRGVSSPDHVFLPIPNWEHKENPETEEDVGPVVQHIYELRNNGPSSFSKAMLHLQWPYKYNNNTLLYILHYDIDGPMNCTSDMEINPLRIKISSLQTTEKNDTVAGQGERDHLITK
Sequence (P06756 891-1048 limits assumed): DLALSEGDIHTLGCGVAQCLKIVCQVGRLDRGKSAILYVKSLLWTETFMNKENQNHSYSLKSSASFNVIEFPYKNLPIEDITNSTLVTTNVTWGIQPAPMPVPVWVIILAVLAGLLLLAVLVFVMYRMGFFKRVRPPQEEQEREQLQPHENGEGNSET
Sequence (P18564 22-788): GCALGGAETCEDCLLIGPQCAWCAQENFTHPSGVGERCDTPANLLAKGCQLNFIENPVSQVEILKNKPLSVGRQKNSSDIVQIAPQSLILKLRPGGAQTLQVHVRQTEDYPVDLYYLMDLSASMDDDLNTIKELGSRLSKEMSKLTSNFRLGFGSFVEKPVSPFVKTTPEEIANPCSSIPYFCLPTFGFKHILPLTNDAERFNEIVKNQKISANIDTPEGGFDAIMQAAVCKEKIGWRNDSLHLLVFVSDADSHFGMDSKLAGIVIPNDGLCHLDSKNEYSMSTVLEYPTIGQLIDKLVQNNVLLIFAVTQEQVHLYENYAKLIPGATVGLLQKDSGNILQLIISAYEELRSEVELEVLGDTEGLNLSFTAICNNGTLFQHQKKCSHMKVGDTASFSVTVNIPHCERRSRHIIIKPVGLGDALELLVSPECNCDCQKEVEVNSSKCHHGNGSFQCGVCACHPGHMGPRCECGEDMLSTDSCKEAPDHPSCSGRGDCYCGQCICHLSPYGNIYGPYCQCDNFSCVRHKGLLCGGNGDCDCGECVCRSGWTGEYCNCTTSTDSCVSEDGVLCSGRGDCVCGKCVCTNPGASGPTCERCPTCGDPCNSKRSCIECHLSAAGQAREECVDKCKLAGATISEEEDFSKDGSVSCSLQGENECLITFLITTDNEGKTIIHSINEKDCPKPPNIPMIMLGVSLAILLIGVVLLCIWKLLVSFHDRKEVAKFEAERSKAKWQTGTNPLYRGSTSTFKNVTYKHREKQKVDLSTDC
Assay: αvβ6 cell adhesion inhibition test (HT-29 cells on recombinant human LAP protein)
Conditions: recombinant human LAP coating, 200 μM MnCl2, 1 hour, read-out: IC50 (rate of inhibition of cell adhesion, αvβ6)
PROPERTY_MEASURED: IC50

Go through the items and report each one's IC50.
1. O=C(O)C[C@H](NC(=O)CNC(=O)c1cc(NC2=NCC(F)CN2)c2cn[nH]c2c1)c1cc(Cl)cc(C(F)(F)F)c1 (some centres unmarked)
2. O=C(O)C[C@H](NC(=O)CNC(=O)c1cc(NC2=NCC(F)CN2)c2cn[nH]c2c1)c1ccc(F)c(OC(F)F)c1 (some centres unmarked)
3. O=C(O)C[C@H](NC(=O)CNC(=O)c1cc(NC2=NCC(F)CN2)c2c(Cl)n[nH]c2c1)c1cc(Cl)cc(C(F)(F)F)c1 (some centres unmarked)
4. O=C(O)C[C@H](NC(=O)CNC(=O)c1cc(NC2=NCC(F)CN2)c2cn[nH]c2c1)c1cccc(Br)c1 (some centres unmarked)
5. O=C(O)C[C@H](NC(=O)CNC(=O)c1cc(NC2=NCC(F)CN2)cc2[nH]ncc12)c1cc(Cl)cc(C(F)(F)F)c1 (some centres unmarked)
6. O=C(O)C[C@H](NC(=O)CNC(=O)c1cc(NC2=NCC(F)CN2)c2cn[nH]c2c1)c1cccc(C(F)(F)F)c1F (some centres unmarked)

Result string:
["< 3 nM", "3 to 10 nM", "< 3 nM", "< 3 nM", "< 3 nM", "< 3 nM"]

Go through the items and report each one's IC50.
1. O=C(O)C[C@H](NC(=O)CNC(=O)c1cc(NC2=NCC(F)CN2)c2cn[nH]c2c1)c1cc(I)cc(C(F)(F)F)c1 (some centres unmarked)
2. O=C(O)C[C@H](NC(=O)CNC(=O)c1cc(NC2=NCC(F)CN2)c2cn[nH]c2c1)c1cc(OC(F)(F)F)ccc1F (some centres unmarked)
3. O=C(O)C[C@H](NC(=O)CNC(=O)c1cc(NC2=NCCCN2)c2cn[nH]c2c1)c1cc(Cl)cc(C(F)(F)F)c1

Result string:
["< 3 nM", "< 3 nM", "10 to 30 nM"]

Go through the items and report each one's IC50.
1. O=C(O)C[C@H](NC(=O)CNC(=O)c1cc(NC2=NCC(F)CN2)c2cn[nH]c2c1)c1cc(Br)ccc1F (some centres unmarked)
2. O=C(O)C[C@H](NC(=O)CNC(=O)c1cc(NC2=NCC(F)CN2)c2cn[nH]c2c1)c1cc(Br)cc(Br)c1 (some centres unmarked)
3. O=C(O)C[C@H](NC(=O)CNC(=O)c1cc(NC2=NCC(F)CN2)c2cn[nH]c2c1)c1cccc(N2CCOCC2)c1 (some centres unmarked)
4. O=C(O)C[C@H](NC(=O)CNC(=O)c1cc(NC2=NCC(F)CN2)cc2[nH]ncc12)c1ccc(F)c(C(F)(F)F)c1 (some centres unmarked)
5. O=C(O)C[C@H](NC(=O)CNC(=O)c1cc(NC2=NCC(F)CN2)cc2[nH]ncc12)c1cccc(C(F)(F)F)c1 (some centres unmarked)
6. O=C(O)C[C@H](NC(=O)CNC(=O)c1cc(NC2=NCC(F)CN2)c2cn[nH]c2c1)c1cccc(Cl)c1 (some centres unmarked)
7. O=C(O)C[C@H](NC(=O)CNC(=O)c1cc(NC2=NCC(F)CN2)c2cn[nH]c2c1)c1cc(Cl)cc(OC(F)F)c1 (some centres unmarked)
8. Cc1ccc([C@H](CC(=O)O)NC(=O)CNC(=O)c2cc(NC3=NCC(F)CN3)c3cn[nH]c3c2)cc1C(F)(F)F (some centres unmarked)

Result string:
1. 3 to 10 nM
2. < 3 nM
3. 3 to 10 nM
4. < 3 nM
5. 3 to 10 nM
6. < 3 nM
7. < 3 nM
8. < 3 nM

Go through the items and report each one's IC50.
1. O=C(O)C[C@H](NC(=O)CNC(=O)c1cc(NC2=NCC(F)CN2)c2cn[nH]c2c1)c1cc(Cl)cc(OC(F)(F)F)c1 (some centres unmarked)
2. O=C(O)C[C@H](NC(=O)CNC(=O)c1cc(NC2=NCC(F)CN2)c2cn[nH]c2c1)c1cc(OC(F)F)ccc1F (some centres unmarked)

Result string:
1. < 3 nM
2. < 3 nM

Go through the items and report each one's IC50.
1. O=C(O)C[C@H](NC(=O)CNC(=O)c1cc(NC2=NCC(O)CN2)c2cn[nH]c2c1)c1cc(Cl)cc(C(F)(F)F)c1 (some centres unmarked)
2. O=C(O)C[C@H](NC(=O)CNC(=O)c1cc(NC2=NCC(F)CN2)cc2[nH]ncc12)c1cc(I)cc(C(F)(F)F)c1 (some centres unmarked)
3. COc1ccc([C@H](CC(=O)O)NC(=O)CNC(=O)c2cc(NC3=NCC(F)CN3)c3cn[nH]c3c2)cc1Br (some centres unmarked)
4. O=C(O)C[C@H](NC(=O)CNC(=O)c1cc(NC2=NCC(F)CN2)c2cn[nH]c2c1)c1cccc(C2CC2)c1 (some centres unmarked)
5. O=C(O)C[C@H](NC(=O)CNC(=O)c1cc(NC2=NCC(F)CN2)c2cn[nH]c2c1)c1cc(OC(F)F)cc(OC(F)F)c1 (some centres unmarked)

Result string:
["10 to 30 nM", "< 3 nM", "< 3 nM", "< 3 nM", "< 3 nM"]

Go through the items and report each one's IC50.
1. O=C(O)C[C@H](NC(=O)CNC(=O)c1cc(NC2=NCC(F)CN2)c2cn[nH]c2c1)c1cc(OC(F)F)cc(-n2cccn2)c1 (some centres unmarked)
2. O=C(O)C[C@H](NC(=O)CNC(=O)c1cc(NC2=NCC(F)CN2)c2cn[nH]c2c1)c1ccc(F)c(OC(F)(F)F)c1 (some centres unmarked)

Result string:
1: < 3 nM; 2: < 3 nM

Just for reference, patent US20230192661A1 is where these values come from.
